Test system: Rattus norvegicus
Experiment: Inhibition of serotonin -induced dermal vascular permeability in rats at a peroral dose of 100 mg/kg 1 hr prior to challenge
Format: functional
Settings: route oral
QUANTITY: inhibition in vivo at 100 mg/kg (%)

CCOC(=O)C1=C(Nc2ccc(C(=O)OCC)cc2)OCC1=O = 18
CCOC(=O)C1=C(NC2CC2c2ccccc2)OCC1=O (configuration not stated) = 57
O=C(O)C1=C(Nc2ccc(Br)cc2)OCC1=O = 39
O=C(O)C1=C(Nc2cccc(C(F)(F)F)c2)OCC1=O = 40
CCOC(=O)C1=C(Nc2cccc(C(F)(F)F)c2)OCC1=O = 9.7
CCOC(=O)C1=C(Nc2ccc(Cl)cc2)OCC1=O = 6.6
COc1ccccc1NC1=C(C(=O)O)C(=O)CO1 = 30
